target: T1, Recombinant human EGFR-Fc (aa 1-645 of the extracellular domain of human EGFR fused to human Fc) (human, UniProt P00533 25-645); experiment: SPR Biacore, EGFR645-Fc
T1 construct: range 1-645; bought from R&D Systems; also called EGFR645-Fc; EGFR-Fc (HER-1); not shown: human Fc
Recorded Metric: koff (s⁻¹)
Lab book: enter the figure in s⁻¹, no units written.

Example entries and their recorded answers appear below.
I1-GSGCGS8-E5 pegylated (designed binder, PEG on the Cys of the GSGCGS8 linker, alternative clone of I1-GS10-E5 pegylated; tail of first monomer EIEK (D to E); also called I1-GSGCGS8-E5(3)) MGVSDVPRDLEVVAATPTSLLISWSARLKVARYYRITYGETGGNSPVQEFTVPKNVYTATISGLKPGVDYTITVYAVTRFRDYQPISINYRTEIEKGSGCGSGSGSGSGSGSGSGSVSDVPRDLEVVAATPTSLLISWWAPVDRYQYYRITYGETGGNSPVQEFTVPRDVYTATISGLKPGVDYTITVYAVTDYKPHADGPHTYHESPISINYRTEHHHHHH	0.000118
I1-GS10-E5-GSGC pegylated (designed binder, PEG on the Cys of the GSGC tail of E5, alternative clone of I1-GS10-E5 pegylated; also called I1-GS10-E5-GSGC(4)) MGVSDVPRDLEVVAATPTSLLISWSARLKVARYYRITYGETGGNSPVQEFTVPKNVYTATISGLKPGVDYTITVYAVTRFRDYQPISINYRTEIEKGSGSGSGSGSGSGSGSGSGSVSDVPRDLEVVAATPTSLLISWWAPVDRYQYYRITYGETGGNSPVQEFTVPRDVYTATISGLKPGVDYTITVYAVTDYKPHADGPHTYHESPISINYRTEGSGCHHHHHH	4.52e-05
I1(S91C)-GS10-E5 pegylated (designed binder, PEG on Cys at position 91 of I1 (position of SEQ ID NO: 1), also called I1(S91C)-GS10-E5(7)) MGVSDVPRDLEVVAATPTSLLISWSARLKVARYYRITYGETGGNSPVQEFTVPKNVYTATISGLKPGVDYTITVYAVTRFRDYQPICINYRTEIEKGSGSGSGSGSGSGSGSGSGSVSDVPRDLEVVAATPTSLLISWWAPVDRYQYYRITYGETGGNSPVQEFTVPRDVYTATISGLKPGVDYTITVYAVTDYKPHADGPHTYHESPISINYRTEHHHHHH	0.000334
I1-GS10-E5(S62C) pegylated (designed binder, PEG on Cys at position 62 of E5 (position of SEQ ID NO: 1), also called I1-GS10-E5(S62C)(6)) MGVSDVPRDLEVVAATPTSLLISWSARLKVARYYRITYGETGGNSPVQEFTVPKNVYTATISGLKPGVDYTITVYAVTRFRDYQPISINYRTEIEKGSGSGSGSGSGSGSGSGSGSVSDVPRDLEVVAATPTSLLISWWAPVDRYQYYRITYGETGGNSPVQEFTVPRDVYTATICGLKPGVDYTITVYAVTDYKPHADGPHTYHESPISINYRTEHHHHHH	3.04e-05
I1-GS10-E5(S91C) pegylated (designed binder, PEG on Cys at position 91 of E5 (position of SEQ ID NO: 1), also called I1-GS10-E5(S91C)(8)) MGVSDVPRDLEVVAATPTSLLISWSARLKVARYYRITYGETGGNSPVQEFTVPKNVYTATISGLKPGVDYTITVYAVTRFRDYQPISINYRTEIEKGSGSGSGSGSGSGSGSGSGSVSDVPRDLEVVAATPTSLLISWWAPVDRYQYYRITYGETGGNSPVQEFTVPRDVYTATISGLKPGVDYTITVYAVTDYKPHADGPHTYHESPICINYRTEHHHHHH	0.000193

Read the next record carefully.
Query block: I'd like to know its koff. The binder in question is I1(S62C)-GS10-E5 pegylated (designed binder, PEG on Cys at position 62 of I1 (position of SEQ ID NO: 1), also called I1(S62C)-GS10-E5(5)) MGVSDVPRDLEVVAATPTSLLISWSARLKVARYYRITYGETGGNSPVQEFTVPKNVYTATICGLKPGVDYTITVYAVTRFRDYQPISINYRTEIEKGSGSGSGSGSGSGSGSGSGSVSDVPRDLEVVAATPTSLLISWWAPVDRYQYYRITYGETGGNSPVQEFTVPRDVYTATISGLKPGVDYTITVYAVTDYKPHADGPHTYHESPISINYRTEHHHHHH
Result block: 0.000199
